# Assayed System: NAMPT (Homo sapiens, UniProt P43490)
# Construct: His tag; host or cells: E. coli
# Sequence (P43490 whole entry): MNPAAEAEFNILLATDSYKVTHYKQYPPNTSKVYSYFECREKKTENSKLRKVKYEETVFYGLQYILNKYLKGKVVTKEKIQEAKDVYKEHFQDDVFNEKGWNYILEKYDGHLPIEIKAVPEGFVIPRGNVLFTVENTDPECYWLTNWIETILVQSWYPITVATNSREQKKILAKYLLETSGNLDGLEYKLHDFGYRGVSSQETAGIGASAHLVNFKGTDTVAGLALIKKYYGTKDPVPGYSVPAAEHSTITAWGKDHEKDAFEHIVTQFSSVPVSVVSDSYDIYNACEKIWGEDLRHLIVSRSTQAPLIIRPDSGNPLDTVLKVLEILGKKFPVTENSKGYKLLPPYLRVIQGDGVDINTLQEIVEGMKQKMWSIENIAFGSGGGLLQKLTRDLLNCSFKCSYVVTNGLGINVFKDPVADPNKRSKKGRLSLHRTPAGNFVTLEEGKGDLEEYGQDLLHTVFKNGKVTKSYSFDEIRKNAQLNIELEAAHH
# Method Description: Biochemical inhibition assay: NAMPT enzymatic reaction, NMN quantified by mass spectrometry
# Assay Context: NAMPT enzymatic assay; read-out: Biochem IC50
Exercise: for every item that follows, state its recorded pIC50.
Answers are plain numbers, as −log10 of the molar value.

In the examples that follow, each entry is paired with its recorded pIC50.
O=C(NCc1ccc(S(=O)(=O)c2cc(Cl)cc(CO)c2)cc1)c1cnc2nccn2c1; 8.47
COc1ccc(OC)c(S(=O)(=O)c2ccc(CNC(=O)c3cc4ccncc4s3)cc2)c1OC; 7.92
Cn1cc(S(=O)(=O)c2ccc(CNC(=O)c3cnc4nccn4c3)cc2)cn1; 8.09
O=C(NCc1ccc(S(=O)(=O)c2cccc3c2OCO3)cc1)c1cc2ccncc2s1; 8.48
COCc1cccc(S(=O)(=O)c2ccc(CNC(=O)c3ccc4nccn4c3)cc2)c1; 8.17
O=C(NCc1ccc(S(=O)(=O)c2ccc(C(F)(F)F)cc2OCC(F)(F)F)cc1)c1cc2cnccc2[nH]1; 8.05
O=C(NCc1ccc(S(=O)(=O)c2cccc(N3CCCCC3)c2)cc1)c1ccc2ncsc2c1; 7.68
O=C(NCc1ccc(S(=O)(=O)c2cnc3n2CCCCC3)cc1)c1cnc2nccn2c1; 8.96

Please look at the items below and tell me pIC50 for each one, in order.
1. O=C(NCc1ccc(S(=O)(=O)c2ccnc(N3CCOCC3)c2Cl)cc1)c1cc2ccncc2s1
2. O=C(NCc1ccc(S(=O)(=O)c2ccc(C(F)(F)F)cc2F)cc1)c1cc2cnccc2[nH]1
3. CC(C)CNC(=O)c1cccc(S(=O)(=O)c2ccc(CNC(=O)c3cc4ccncc4o3)cc2)c1
4. CCN(C)c1ncc(S(=O)(=O)c2ccc(CNC(=O)c3cnc4[nH]ncc4c3)cc2)s1
5. CCC[C@@H](O)c1ccc(S(=O)(=O)c2ccc(CNC(=O)c3cnc4nccn4c3)cc2)cc1
6. O=C(NCc1ccc(S(=O)(=O)c2cccc(C(=O)N3CCOCC3)c2)cc1)c1cnc2[nH]ncc2c1
7. O=C(NCc1ccc(S(=O)(=O)c2cc(C(F)(F)F)ccc2Cl)cc1)c1cc2ccncc2o1

1: 8.07; 2: 7.10; 3: 7.77; 4: 8.44; 5: 8.32; 6: 6.91; 7: 7.86

Please look at the items below and tell me pIC50 for each one, in order.
1. O=C(NCc1ccc(S(=O)(=O)c2ccccc2OC(F)(F)F)cc1)c1cnc2nccn2c1
2. CCN(C)c1ncc(S(=O)(=O)c2ccc(CNC(=O)c3cnc4nccn4c3)cc2)s1
3. O=C(NCc1ccc(S(=O)(=O)c2ccc(-n3cccn3)cc2F)cc1)c1ccc2nccn2c1

1: 8.62; 2: 8.74; 3: 8.07

Data provenance: patent US12336981B2
